Cited source: patent US10752612B2

- SUBJECT_OF_TEST: human Plk4 kinase domain (aa 2-275) (Homo sapiens, UniProt O00444)
- Sequence (O00444 2-275): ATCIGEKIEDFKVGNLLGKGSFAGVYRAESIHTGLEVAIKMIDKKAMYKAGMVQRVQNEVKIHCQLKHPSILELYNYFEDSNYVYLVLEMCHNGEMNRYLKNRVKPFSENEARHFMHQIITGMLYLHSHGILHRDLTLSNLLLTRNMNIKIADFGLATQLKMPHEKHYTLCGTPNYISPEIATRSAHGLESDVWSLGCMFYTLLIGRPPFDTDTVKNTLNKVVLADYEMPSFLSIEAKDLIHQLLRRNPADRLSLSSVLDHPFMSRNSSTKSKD
pIC50: −log10 of the molar value.
PARAMETER_MEASURED: pIC50

Guide cases for pIC50, answers given:
> print(dat)
                                   molecule  parameter.measured        result
1  COc1c(Nc2cc(C)[nH]n2)nc(Sc2ccc(S(=O)(=O)C(F)(F)F)cc2)nc1N1CCN(CCN(C)C)CC1               pIC50        > 6.00
2  CCOc1c(Nc2cc(C)[nH]n2)nc(Sc2ccc(NC(=O)C3CC3)cc2)nc1N(C)CC [drawing 128]               pIC50  6.00 to 7.00

Look up pIC50 with human Plk4 kinase domain (aa 2-275) (Homo sapiens, UniProt O00444) for this molecule: Cc1cc(Nc2nc(Sc3ccc(N)cc3)nc(N3CCCCC3)c2C)n[nH]1
> 6.00
